study.system: SRPK1 (Homo sapiens, UniProt Q96SB4)
Sequence (Q96SB4 whole entry, species assumed): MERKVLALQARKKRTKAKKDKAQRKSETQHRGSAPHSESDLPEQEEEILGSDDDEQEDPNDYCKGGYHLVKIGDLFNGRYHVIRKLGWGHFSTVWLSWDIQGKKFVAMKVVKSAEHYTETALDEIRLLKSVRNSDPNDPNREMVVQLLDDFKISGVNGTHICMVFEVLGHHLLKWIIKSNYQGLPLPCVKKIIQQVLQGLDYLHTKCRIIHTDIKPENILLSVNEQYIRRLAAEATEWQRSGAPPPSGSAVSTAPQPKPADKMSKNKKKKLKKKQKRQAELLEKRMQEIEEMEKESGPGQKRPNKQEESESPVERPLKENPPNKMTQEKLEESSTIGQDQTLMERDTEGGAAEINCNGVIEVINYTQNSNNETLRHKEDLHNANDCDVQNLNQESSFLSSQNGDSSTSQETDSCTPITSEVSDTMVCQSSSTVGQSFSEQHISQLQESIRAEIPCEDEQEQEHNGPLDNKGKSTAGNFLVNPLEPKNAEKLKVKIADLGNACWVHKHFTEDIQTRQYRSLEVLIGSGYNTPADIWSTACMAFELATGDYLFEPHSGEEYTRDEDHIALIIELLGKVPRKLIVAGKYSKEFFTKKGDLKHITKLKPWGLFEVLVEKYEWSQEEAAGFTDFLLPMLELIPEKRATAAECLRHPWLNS
protocol.description: Kinase profiling SRPK1
Type: biochemical
stated.conditions: 100 micromolar inhibitor concentration; 100 is no change; read-out: residual kinase activity, SRPK1
property: remaining activity at 100 µM (%)
Provide only the numeric value, understood in %.

Entry CC(=O)Nc1nc2ccc(C#N)cc2s1 ; remaining activity at 100 µM = 47

Memo: COc1ccc2sc(NC(C)=O)nc2c1 , reported remaining activity at 100 µM: 84

Value of remaining activity at 100 µM reported for the molecule CC(=O)Nc1nc2ccc(C(F)(F)F)cc2s1 is 41

Lookup result for CC(=O)Nc1nc2ccc(O)cc2s1 ; measured remaining activity at 100 µM: 44

Sample CC(=O)Nc1nc2cc(C(F)(F)F)ccc2s1 ; remaining activity at 100 µM observed: 72

Reported remaining activity at 100 µM of CC(=O)Nc1nc2cc(F)ccc2s1 : 65

Notebook: CC(=O)Nc1nc2ccc([N+](=O)[O-])cc2s1 , remaining activity at 100 µM read as 62

###

study.system: PIM2 (Homo sapiens, UniProt Q9P1W9)
Sequence (Q9P1W9 whole entry, species assumed): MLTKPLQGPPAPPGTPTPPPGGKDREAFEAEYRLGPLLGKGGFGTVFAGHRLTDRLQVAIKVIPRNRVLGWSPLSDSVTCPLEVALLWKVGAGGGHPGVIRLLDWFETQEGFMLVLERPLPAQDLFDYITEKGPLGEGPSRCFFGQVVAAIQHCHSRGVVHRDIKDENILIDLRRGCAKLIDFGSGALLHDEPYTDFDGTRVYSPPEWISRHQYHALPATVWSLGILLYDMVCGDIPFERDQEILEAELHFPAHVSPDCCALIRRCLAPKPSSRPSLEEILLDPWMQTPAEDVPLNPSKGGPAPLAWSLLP
protocol.description: Kinase profiling PIM2
Format: biochemical
stated.conditions: 100 micromolar inhibitor concentration; 100 is no change
Label rule, in plain words: residual kinase activity, PIM2 of 80 and up is label 1, under 80 is label 0.

*Q* Has O=C(Nc1nc2ccc(O)cc2s1)c1ccccn1 a recorded residual kinase activity, PIM2 greater than or equal to 80?
*A* label 0

*Q* Check if residual kinase activity, PIM2 >= 80 (inclusive). Item: O=C(Nc1nc2cc(O)ccc2s1)c1cccnc1
*A* label 0

*Q* Is reported residual kinase activity, PIM2 greater than or equal to 80 here: O=C(Nc1nc2cc(O)ccc2s1)c1ccccn1
*A* label 0

*Q* Determine whether measured residual kinase activity, PIM2 meets or exceeds 80 for O=C(Nc1nc2ccc(O)cc2s1)c1ccccc1
*A* label 0

*Q* Record CC(=O)Nc1nc2ccccc2s1 ; criterion: residual kinase activity, PIM2 no lower than 80. Met?
*A* label 1

*Q* Record O=C(Nc1nc2cc(O)ccc2s1)c1ccncc1 ; criterion: residual kinase activity, PIM2 no lower than 80. Met?
*A* label 1

*Q* Decide: residual kinase activity, PIM2 of O=C(Nc1nc2ccc(O)cc2s1)c1ccncc1 >= 80?
*A* label 1

*Q* Hello, I need to know if O=C(Nc1nc2ccc(O)cc2s1)c1cccnc1 has measured residual kinase activity, PIM2 not below 80. Thanks!
*A* label 0

###

study.system: WNK1 (Homo sapiens, UniProt Q9H4A3)
Sequence (Q9H4A3 whole entry, species assumed): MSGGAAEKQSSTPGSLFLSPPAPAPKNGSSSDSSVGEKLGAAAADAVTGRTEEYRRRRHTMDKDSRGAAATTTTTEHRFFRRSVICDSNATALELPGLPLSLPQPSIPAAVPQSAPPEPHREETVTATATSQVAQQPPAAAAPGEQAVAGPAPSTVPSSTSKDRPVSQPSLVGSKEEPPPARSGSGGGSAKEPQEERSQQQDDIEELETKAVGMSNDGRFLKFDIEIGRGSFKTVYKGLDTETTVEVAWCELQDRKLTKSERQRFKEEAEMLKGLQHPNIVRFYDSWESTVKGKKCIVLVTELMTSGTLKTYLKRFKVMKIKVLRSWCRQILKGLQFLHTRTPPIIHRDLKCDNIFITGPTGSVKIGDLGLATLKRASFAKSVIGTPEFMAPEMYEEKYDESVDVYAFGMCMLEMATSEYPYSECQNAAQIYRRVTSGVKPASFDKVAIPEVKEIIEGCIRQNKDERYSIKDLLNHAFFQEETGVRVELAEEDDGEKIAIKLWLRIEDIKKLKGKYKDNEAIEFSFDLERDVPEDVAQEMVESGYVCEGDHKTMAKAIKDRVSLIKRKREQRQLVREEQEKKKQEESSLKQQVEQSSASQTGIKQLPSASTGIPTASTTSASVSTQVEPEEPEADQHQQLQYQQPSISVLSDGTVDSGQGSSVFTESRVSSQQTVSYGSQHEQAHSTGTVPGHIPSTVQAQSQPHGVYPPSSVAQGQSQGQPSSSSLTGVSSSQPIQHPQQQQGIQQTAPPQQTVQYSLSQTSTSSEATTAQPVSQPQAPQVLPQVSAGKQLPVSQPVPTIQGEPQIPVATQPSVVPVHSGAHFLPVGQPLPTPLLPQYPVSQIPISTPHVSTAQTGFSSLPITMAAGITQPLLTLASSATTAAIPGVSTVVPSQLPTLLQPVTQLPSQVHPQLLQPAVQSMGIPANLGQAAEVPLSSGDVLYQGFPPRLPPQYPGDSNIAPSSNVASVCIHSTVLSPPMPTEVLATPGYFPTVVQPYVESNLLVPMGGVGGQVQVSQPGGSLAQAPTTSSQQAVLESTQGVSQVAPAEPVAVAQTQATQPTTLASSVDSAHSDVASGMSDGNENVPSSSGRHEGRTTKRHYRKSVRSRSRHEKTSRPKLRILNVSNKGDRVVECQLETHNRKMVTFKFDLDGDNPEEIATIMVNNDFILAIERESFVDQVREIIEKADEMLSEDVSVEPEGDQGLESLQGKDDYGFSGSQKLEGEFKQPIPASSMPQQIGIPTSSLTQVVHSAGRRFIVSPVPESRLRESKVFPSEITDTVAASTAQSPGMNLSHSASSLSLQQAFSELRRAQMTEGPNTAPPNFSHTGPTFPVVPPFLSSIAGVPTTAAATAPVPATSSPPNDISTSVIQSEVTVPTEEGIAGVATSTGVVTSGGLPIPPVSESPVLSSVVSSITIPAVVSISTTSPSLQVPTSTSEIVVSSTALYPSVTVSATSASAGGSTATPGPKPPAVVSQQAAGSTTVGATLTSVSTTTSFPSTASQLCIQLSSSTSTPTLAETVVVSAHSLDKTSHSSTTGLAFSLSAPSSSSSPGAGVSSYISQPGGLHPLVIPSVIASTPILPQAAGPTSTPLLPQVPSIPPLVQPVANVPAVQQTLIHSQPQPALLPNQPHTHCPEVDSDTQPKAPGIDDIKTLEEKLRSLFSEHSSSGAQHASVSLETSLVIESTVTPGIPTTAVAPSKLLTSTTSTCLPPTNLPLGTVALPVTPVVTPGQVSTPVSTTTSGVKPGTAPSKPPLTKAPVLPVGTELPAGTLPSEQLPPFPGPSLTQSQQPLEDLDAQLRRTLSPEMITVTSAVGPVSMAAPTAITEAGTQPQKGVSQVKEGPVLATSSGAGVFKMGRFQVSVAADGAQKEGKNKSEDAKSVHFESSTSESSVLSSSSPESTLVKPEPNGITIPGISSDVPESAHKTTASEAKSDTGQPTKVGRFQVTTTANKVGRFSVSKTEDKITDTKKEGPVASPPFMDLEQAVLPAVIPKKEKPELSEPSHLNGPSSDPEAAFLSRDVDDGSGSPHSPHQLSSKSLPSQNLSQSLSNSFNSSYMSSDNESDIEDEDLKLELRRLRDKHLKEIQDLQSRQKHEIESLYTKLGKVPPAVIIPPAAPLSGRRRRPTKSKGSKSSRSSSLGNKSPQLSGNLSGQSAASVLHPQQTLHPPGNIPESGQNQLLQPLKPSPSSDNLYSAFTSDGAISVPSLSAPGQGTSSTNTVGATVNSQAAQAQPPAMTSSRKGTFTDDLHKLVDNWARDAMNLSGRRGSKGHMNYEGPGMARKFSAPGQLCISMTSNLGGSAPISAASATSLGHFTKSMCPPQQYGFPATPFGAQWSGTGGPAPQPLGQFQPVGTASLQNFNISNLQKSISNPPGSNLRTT
protocol.description: Kinase profiling WNK1
Assay type: biochemical
stated.conditions: 100 micromolar inhibitor concentration; 100 is no change; read-out: residual kinase activity, WNK1
Text: Any value less that 25 is considered to be highly significant inhibition.
property: remaining activity at 100 µM (%)
Express the result in % but write the number alone.

WNK1 (Homo sapiens, UniProt Q9H4A3) remaining activity at 100 µM of CC(=O)Nc1nc2ccc(C#N)cc2s1 is 101

Query CC(=O)Nc1nc2ccc(O)cc2s1 on WNK1 (Homo sapiens, UniProt Q9H4A3); remaining activity at 100 µM returned: 96

The recorded remaining activity at 100 µM with WNK1 (Homo sapiens, UniProt Q9H4A3) for CC(=O)Nc1nc2ccc(C(F)(F)F)cc2s1 was 100

Noted remaining activity at 100 µM for CC(=O)Nc1nc2cc(F)ccc2s1 , tested on WNK1 (Homo sapiens, UniProt Q9H4A3): 99

// returns remaining activity at 100 µM for CC(=O)Nc1nc2cc(C(F)(F)F)ccc2s1 with WNK1 (Homo sapiens, UniProt Q9H4A3); value = 128

The reported WNK1 (Homo sapiens, UniProt Q9H4A3) remaining activity at 100 µM of COc1ccc2sc(NC(C)=O)nc2c1 is 121
